- Test system: HCC-366
- METHOD_NOTES: relative viability (nuclei count vs DMSO), 5 days (fraction); higher = more cells survive
- CONDITION_DESCRIPTION: first compound 0.005 µM

>  <COMPOUND>
CC1(C)CCC(c2ccc(Cl)cc2)=C(CN2CCN(c3ccc(C(=O)NS(=O)(=O)c4ccc(N[C@H](CCN5CCOCC5)CSc5ccccc5)c(S(=O)(=O)C(F)(F)F)c4)cc3)CC2)C1 [Navitoclax] + C[C@]1(O)C[C@@H](c2nc(-c3ccc4ccc(-c5ccccc5)nc4c3)c3c(N)nccn32)C1 [Linsitinib] (partner 1 µM)

>  <ASSAYED_TARGET>
HCC-366

>  <relative viability>
0.672

$$$$
>  <COMPOUND>
CC1(C)CCC(c2ccc(Cl)cc2)=C(CN2CCN(c3ccc(C(=O)NS(=O)(=O)c4ccc(N[C@H](CCN5CCOCC5)CSc5ccccc5)c(S(=O)(=O)C(F)(F)F)c4)cc3)CC2)C1 [Navitoclax] + O=C(CCCCCCC(=O)Nc1ccccc1)NO [Vorinostat] (partner 1 µM)

>  <ASSAYED_TARGET>
HCC-366

>  <relative viability>
0.302

$$$$
>  <COMPOUND>
CC1(C)CCC(c2ccc(Cl)cc2)=C(CN2CCN(c3ccc(C(=O)NS(=O)(=O)c4ccc(N[C@H](CCN5CCOCC5)CSc5ccccc5)c(S(=O)(=O)C(F)(F)F)c4)cc3)CC2)C1 [Navitoclax] + COc1cccc2cc(-c3nc([C@H]4CC[C@H](C(=O)O)CC4)n4ncnc(N)c34)[nH]c12 [OSI-027] (partner 0.5 µM)

>  <ASSAYED_TARGET>
HCC-366

>  <relative viability>
0.912

$$$$

---

- System: NCI-H1915
- METHOD_NOTES: relative viability (nuclei count vs DMSO), 5 days (fraction); higher = more cells survive
- CONDITION_DESCRIPTION: first compound 8 µM
relative viability values, listed per item

>  <COMPOUND>
C=C1C(=O)O[C@@H](CCCCCCCC)[C@@H]1C(=O)O [C-75] + CCNC(=O)c1noc(-c2cc(C(C)C)c(O)cc2O)c1-c1ccc(CN2CCOCC2)cc1 [Luminespib] (partner 0.01 µM)

>  <relative viability>
0.677

$$$$
>  <COMPOUND>
C=C1C(=O)O[C@@H](CCCCCCCC)[C@@H]1C(=O)O [C-75] + Cc1nc(NC(=O)N2CCC[C@H]2C(N)=O)sc1-c1ccnc(C(C)(C)C(F)(F)F)c1 [Alpelisib] (partner 2 µM)

>  <relative viability>
1.01

$$$$
>  <COMPOUND>
C=C1C(=O)O[C@@H](CCCCCCCC)[C@@H]1C(=O)O [C-75] + Nc1nc2[nH]cc(CCc3ccc(C(=O)N[C@@H](CCC(=O)O)C(=O)O)cc3)c2c(=O)[nH]1 [Pemetrexed] (partner 0.2 µM)

>  <relative viability>
0.527

$$$$
>  <COMPOUND>
C=C1C(=O)O[C@@H](CCCCCCCC)[C@@H]1C(=O)O [C-75] + CC1(C)CCC(c2ccc(Cl)cc2)=C(CN2CCN(c3ccc(C(=O)NS(=O)(=O)c4ccc(N[C@H](CCN5CCOCC5)CSc5ccccc5)c(S(=O)(=O)C(F)(F)F)c4)cc3)CC2)C1 [Navitoclax] (partner 0.5 µM)

>  <relative viability>
0.781

$$$$
>  <COMPOUND>
C=C1C(=O)O[C@@H](CCCCCCCC)[C@@H]1C(=O)O [C-75] + CS(=O)(=O)CCNCc1ccc(-c2ccc3ncnc(Nc4ccc(OCc5cccc(F)c5)c(Cl)c4)c3c2)o1 [Lapatinib] (partner 2 µM)

>  <relative viability>
0.909

$$$$
>  <COMPOUND>
C=C1C(=O)O[C@@H](CCCCCCCC)[C@@H]1C(=O)O [C-75] + C[C@@H](Oc1cc(-c2cnn(C3CCNCC3)c2)cnc1N)c1c(Cl)ccc(F)c1Cl [Crizotinib] (partner 1 µM)

>  <relative viability>
0.804

$$$$
>  <COMPOUND>
C=C1C(=O)O[C@@H](CCCCCCCC)[C@@H]1C(=O)O [C-75] + CC(=O)c1c(C)c2cnc(Nc3ccc(N4CCNCC4)cn3)nc2n(C2CCCC2)c1=O [Palbociclib] (partner 0.5 µM)

>  <relative viability>
0.5

$$$$
>  <COMPOUND>
C=C1C(=O)O[C@@H](CCCCCCCC)[C@@H]1C(=O)O [C-75] + Cc1nc(Nc2ncc(C(=O)Nc3c(C)cccc3Cl)s2)cc(N2CCN(CCO)CC2)n1 [Dasatinib] (partner 0.075 µM)

>  <relative viability>
0.383

$$$$
>  <COMPOUND>
C=C1C(=O)O[C@@H](CCCCCCCC)[C@@H]1C(=O)O [C-75] + COc1cccc2cc(-c3nc([C@H]4CC[C@H](C(=O)O)CC4)n4ncnc(N)c34)[nH]c12 [OSI-027] (partner 0.5 µM)

>  <relative viability>
0.588

$$$$
>  <COMPOUND>
C=C1C(=O)O[C@@H](CCCCCCCC)[C@@H]1C(=O)O [C-75] + COc1cc2c(Oc3ccc(NC(=O)C4(C(=O)Nc5ccc(F)cc5)CC4)cc3F)ccnc2cc1OCCCN1CCOCC1 [Foretinib] (partner 0.25 µM)

>  <relative viability>
1.05

$$$$
>  <COMPOUND>
C=C1C(=O)O[C@@H](CCCCCCCC)[C@@H]1C(=O)O [C-75] + O=C(CCCCCCC(=O)Nc1ccccc1)NO [Vorinostat] (partner 1 µM)

>  <relative viability>
0.536

$$$$
